cond: 303.15 K; 101 kPa; Liquid
reported_property: viscosity (mPa·s)

A selection of reference data follows.
INSERT INTO assay_data (molecule, reported_property, test_result) VALUES
  ('C[S+](C)[O-] [dimethyl sulfoxide]', 'viscosity', 1.832),
  ('CCCO', 'viscosity', 1.733);

[A] CCO
[B] CO
[C] CC(C)O
Arrange these molecules by their viscosity, starting with the largest number. # answer = labels listed in requested order
C, A, B
(C: 1.792 mPa·s, A: 1.086 mPa·s, B: 0.5178 mPa·s)

* * *

cond: 318.15 K; 101 kPa; Liquid
reported_property: viscosity (mPa·s)

A selection of reference data follows.
INSERT INTO assay_data (compound, u, test_result) VALUES
  ('CCO', 'mPa·s', 0.8284),
  ('CCCO', 'mPa·s', 1.234),
  ('CC(C)O', 'mPa·s', 1.182);

[A] CO
[B] C[S+](C)[O-] [dimethyl sulfoxide]
Recorded viscosity values differ for A and B ; which one is higher? Pick one and reply with its label.
B

// data source = the NIST ThermoML archive (doi:10.1016/j.jct.2006.10.016)
